# System: SF-539 CNS
# assay_notes: NCI-60 one-dose screen, 48 h
# run_conditions: 10 µM unless noted
The panel holds about 83,000 compounds, 20% with a hit somewhere; the sample as a whole holds those more often. Calls of active or inactive are those of the source. Rule for the calls: active = growth percent below 10; inactive = the rest.
One label from this list, please: 1 (yes) (active), 0 (no) (inactive)

Example entries begin here.
Cc1c(C)c(C)c([N+](=O)[O-])c([N+](=O)[O-])c1C : 0 (no)
O=C(NNC(=S)Nc1ccccc1)c1ccc(Nc2ncnc3c2cnn3-c2cccc(Br)c2)cc1 : 0 (no)
Cc1ccc2nc(CN(CCN(Cc3nc4ccc(C)cc4[nH]3)Cc3nc4ccc(C)cc4[nH]3)Cc3nc4ccc(C)cc4[nH]3)[nH]c2c1 : 1 (yes)
C/C(=N\NC(=S)Nc1ccccc1)c1ccccn1 : 0 (no)
COc1cccc(NC(=O)[C@H](C(C)C)n2c(=O)[nH]c3ccccc3c2=O)c1 : 0 (no)
Oc1c(-c2cc(C(F)(F)F)[nH]n2)cc(Cl)c(OCc2ccc(Cl)cc2)c1-c1ccc(Cl)c(C(F)(F)F)c1 : 1 (yes)
COc1cccc2nc(Nc3cccc(NC(=O)c4cc(N5CCOCC5)cc(C(F)(F)F)c4)c3)ccc12 : 0 (no)
CC(=O)c1c(O)c(C)c(O)c2c1OC1=CC(=O)/C(=C(/C)N)C(=O)C12C (stereo not given) : 0 (no)
CCc1ccc(Nc2cc(C)c3ccc(O)cc3n2)cc1 : 0 (no)
Cc1cc(C)c2c(n1)sc1c(Nc3ccc(Cl)cc3Cl)ncnc12 : 1 (yes)

Query :: Hi team, can someone confirm the assay call for CCOc1cccc(/C=N/NC(=O)Cc2ccc(Nc3ccnc(C(F)(F)F)c3)cc2)c1O ?
Result :: 0 (no)

Query :: Hi team, can someone confirm the assay call for O=C1Nc2ccccc2/C1=C/c1c[nH]c2ccccc12 ?
Result :: 0 (no)

Query :: Hi team, can someone confirm the assay call for CN1CCN(Cc2ccc(NC(=O)c3cncc(C#Cc4cnc5cccnn45)c3)cc2C(F)(F)F)CC1 ?
Result :: 1 (yes)

Query :: Hi team, can someone confirm the assay call for CC(C)NC(=O)OCC#CCOC(=O)NC(C)C ?
Result :: 0 (no)
